# Test system: 6-OHDA-induced SH-SY5Y neuronal cells
# Experimental Protocol: Intracellular ROS production, H2DCFDA assay
# Type: cell-based
# Setup Conditions: Homo sapiens, 5 μM pretreatment 3 h, then 50 μM 6-OHDA 24 h, relative to control
Metric: activity at 5 µM (%)
Write the answer as a number in %, unit excluded.

Recorded results for 5 compounds are shown here.
Cc1ccc(OCc2cn(-c3ccc(S(=O)(=O)NCCc4ccccc4)cc3)nn2)cc1 ... 102
Oc1ccc(/C=C/c2cc(O)cc(O)c2)cc1 [Resveratrol, reference compound] ... 101
Cc1ccccc1OCc1cn(-c2ccc(S(=O)(=O)N3CCc4ccccc4C3)cc2)nn1 ... 102
O=Cc1ccc(OCc2cn(-c3ccc(S(=O)(=O)NCCc4ccccc4)cc3)nn2)cc1 ... 103
Cc1ccccc1OCc1cn(-c2ccc(S(=O)(=O)NCCc3ccccc3)cc2)nn1 ... 104

activity at 5 µM measured on `O=[N+]([O-])c1ccc(OCc2cn(-c3ccc(S(=O)(=O)NCCc4ccccc4)cc3)nn2)cc1` = 103

activity at 5 µM measured on `O=Cc1ccc(OCc2cn(-c3ccc(S(=O)(=O)N4CCc5ccccc5C4)cc3)nn2)cc1` = 103
